Hey, just so you know, these numbers are from PubChem BioAssay.

inhibition listing for selected molecules.
# method.summary: VP16 transactivation reporter inhibitors, counter-screen for LRH-1 inverse agonist project, cell-based, luminescence, high throughput (AID 651615)
# setup.conditions: Gal4-VP16 luciferase reporter cells, at 3.6 µM, stronger effect = higher value
Give the value, in units of %, as a plain number.

Solved entries:
                                   molecule    endpoint  readout_value
0  Cc1cc(C(=O)NC2CCCc3c2cnn3-c2cccc(C)c2C)n(C)n1 (stereo not given)  inhibition           59.1
1  COc1ccc(N2CCN(C(=O)C3CCC(Cn4c(=S)[nH]c5ccccc5c4=O)CC3)CC2)cc1 (stereo not given)  inhibition           26.8
2  CCOC(=O)c1c(N)n(CCOC(=O)c2cccs2)c2nc3ccccc3nc12  inhibition          -11.6
3  Cc1ccc(OCc2nnc(SCC(=O)Nc3ccc4c(c3)OCCO4)n2Cc2ccco2)cc1  inhibition           1.35

Which inhibition is reported for this molecule? "CCOc1ccc(NC(=O)CN2CCN(C3c4ccccc4-c4ccccc43)CC2)cc1"
-0.77

###

# method.summary: STAT1 reporter inhibitors, IFN-gamma induced, confirmation, counter-screen for STAT3 inhibitor project, cell-based, NIH 3T3, luciferase luminescence (AID 1317);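 note: 0% = DMSO with IFN-gamma and 100% = nifuroxazide control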
# setup.conditions: NIH 3T3 STAT1-luciferase reporter, at 5.7 µM, stronger effect = higher value
Some of the results follow.
endpoint: inhibition (%)
Give the value, in units of %, as a plain number.

>>> df
                                   molecule    endpoint  readout_value
0         O=c1c2c(nc3n1CCCCC3)sc1c(O)cccc12  inhibition           3.33
1  CC(C)(CNC(=O)c1ccc(Cl)c(S(=O)(=O)N2CCc3ccccc3C2)c1)N1CCOCC1  inhibition              9
2  CCCOC(=O)c1[nH]c2c(c1C)C(=O)CC(c1cc(OC)c(OC)c(OC)c1)C2 (stereo not given)  inhibition           25.8
3        O=C(Nc1nc2ccccc2s1)c1ccc2c(c1)OCO2  inhibition          -93.8
4           Cc1ccc(N/C=C/C(=O)c2ccccc2)cc1C  inhibition          -55.2
5  Cc1ccc(-c2cc(C(=O)N/N=C/C=C/c3ccco3)c3ccccc3n2)cc1C  inhibition          -40.9

Which inhibition is reported for this molecule? "O=c1oc(/C=C/c2ccccc2)nc2ccccc12"
-42.9

Which inhibition is reported for this molecule? "c1coc(CNc2ncnc3ccccc23)c1"
30.5

###

# assay.target: Nuclear receptor subfamily 5 group A member 2 (Homo sapiens)
# method.summary: LRH-1 (NR5A2) inverse agonists, retest, confirmation, cell-based, luminescence (AID 651613);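 note: HEK293T cells co-transfected with LRH-1 and StAR promoter luciferase reporter; 0% = vehicle wells and 100% = parental cells lacking receptor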
# setup.conditions: cell-based LRH-1 luciferase reporter, inverse agonism; at 3.6 µM; stronger effect = higher value
Classification field: Met = inhibition at or over 60%; Not met = inhibition under 60%.

# example entries with known answers
                                   compound  answer_label
0  COc1cccc(/C=N\NC(=O)c2ccc(Cn3cc(Br)c([N+](=O)[O-])n3)o2)c1O           Met
1  CSc1ccc(COC(=O)c2cc([N+](=O)[O-])ccc2N2CCOCC2)cc1       Not met
2  O=C(CN1C(=O)c2ccccc2S1(=O)=O)c1ccc2c(c1)OCCO2           Met
3  CC(=O)c1ccsc1-c1c(C)cc2oc(=O)cc(-c3ccccc3)c2c1C           Met
4  Oc1ccccc1-c1nc(NCC2CCCO2)c2ccccc2n1 (stereo not given)           Met
5  CCCc1nc2cc(C)c(Br)c(C)n2c1Cc1ccc(OC)cc1C       Not met
6  Cn1c2c(c(=O)n(C)c1=O)C(C(F)(F)F)(C(F)(F)F)N=C(CCC1CCCCC1)N2       Not met
7  Cc1ccc2nc(NC(=O)CSCC(=O)OCC(=O)c3ccccc3)sc2c1       Not met

Does the reported inhibition for "C/C(=N\N=C(N)N)c1cc(Cl)ccc1Cl" fall at or above the 60% mark?
Met

Does the reported inhibition for Cc1cc(C(=O)COC(=O)c2ccccc2Br)c(C)n1CC1CCCO1 (stereo not given) fall at or above the 60% mark?
Not met

Does the reported inhibition for "COC(=O)Cc1ccc(NC(=O)c2ccc(C(C)(C)C)cc2)cc1" fall at or above the 60% mark?
Met

Does the reported inhibition for "O=C(c1cccc(Cl)c1)N1CCCC(c2ccc(Cl)cc2)=N1" fall at or above the 60% mark?
Not met

Does the reported inhibition for "Nc1ncn([C@@H]2O[C@H](CO)[C@@H](O)[C@H]2O)c(=O)n1" fall at or above the 60% mark?
Met

###

# assay.target: Nuclear receptor coactivator 3 (Homo sapiens) (UniProt Q9Y6Q9)
# Sequence (Q9Y6Q9 whole entry, looked up): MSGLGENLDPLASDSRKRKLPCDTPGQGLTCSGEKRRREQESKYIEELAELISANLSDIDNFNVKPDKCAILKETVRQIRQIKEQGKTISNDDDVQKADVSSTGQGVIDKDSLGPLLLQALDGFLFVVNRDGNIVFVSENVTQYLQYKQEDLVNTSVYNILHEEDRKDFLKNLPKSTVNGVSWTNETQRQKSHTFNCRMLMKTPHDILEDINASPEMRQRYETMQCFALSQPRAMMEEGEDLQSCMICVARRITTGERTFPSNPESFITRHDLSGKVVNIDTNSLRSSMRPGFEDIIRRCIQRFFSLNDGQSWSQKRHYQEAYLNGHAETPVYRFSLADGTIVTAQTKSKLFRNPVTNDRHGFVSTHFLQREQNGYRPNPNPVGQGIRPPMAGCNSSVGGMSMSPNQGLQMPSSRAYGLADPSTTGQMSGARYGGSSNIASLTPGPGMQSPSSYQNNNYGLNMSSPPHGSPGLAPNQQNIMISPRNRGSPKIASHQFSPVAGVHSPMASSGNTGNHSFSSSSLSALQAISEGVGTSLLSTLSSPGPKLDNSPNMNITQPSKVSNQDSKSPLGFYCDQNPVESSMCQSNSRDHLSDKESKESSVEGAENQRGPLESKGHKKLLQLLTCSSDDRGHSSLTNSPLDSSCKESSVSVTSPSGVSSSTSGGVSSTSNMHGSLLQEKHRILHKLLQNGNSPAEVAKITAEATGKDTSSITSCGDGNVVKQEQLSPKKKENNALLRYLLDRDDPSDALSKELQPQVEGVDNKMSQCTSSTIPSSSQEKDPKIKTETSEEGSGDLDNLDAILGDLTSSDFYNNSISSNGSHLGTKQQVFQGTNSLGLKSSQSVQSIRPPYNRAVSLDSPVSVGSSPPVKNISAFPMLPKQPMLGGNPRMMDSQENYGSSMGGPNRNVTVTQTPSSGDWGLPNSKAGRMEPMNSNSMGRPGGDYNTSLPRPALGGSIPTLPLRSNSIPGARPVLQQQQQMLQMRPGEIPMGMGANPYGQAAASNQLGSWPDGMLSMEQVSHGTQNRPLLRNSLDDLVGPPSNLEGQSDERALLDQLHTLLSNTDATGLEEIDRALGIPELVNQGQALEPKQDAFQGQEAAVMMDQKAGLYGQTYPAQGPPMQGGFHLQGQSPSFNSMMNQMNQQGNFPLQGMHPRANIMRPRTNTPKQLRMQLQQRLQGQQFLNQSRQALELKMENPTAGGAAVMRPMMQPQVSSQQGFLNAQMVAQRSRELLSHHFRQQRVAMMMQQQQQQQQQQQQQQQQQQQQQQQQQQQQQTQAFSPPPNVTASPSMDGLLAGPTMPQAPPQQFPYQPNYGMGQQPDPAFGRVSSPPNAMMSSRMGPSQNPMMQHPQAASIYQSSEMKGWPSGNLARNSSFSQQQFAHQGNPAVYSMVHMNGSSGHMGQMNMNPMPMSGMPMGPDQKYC
# method.summary: SRC3 coactivator transcriptional activity inhibitors, confirmation, cell-based, luminescence, quadruplicate (AID 588792);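 note: 0% = DMSO treated cells and 100% = gossypol at 36 µM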
# setup.conditions: HEK293 GAL4-SRC3 luciferase reporter, at 3.6 µM
Activity calls are given as the source filed them.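 The calls were made as follows: active = mean inhibition over 43.08%, the solvent-only control mean plus 3 SD; inactive = the rest.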
Write down the outcome that applies. Available outcomes: t (active), f (inactive)

In [3]: df
Out[3]:
                                   compound  answer_label
0    Cc1ccc2[nH]cc(/C=C/c3cc[n+](C)cc3)c2c1             f
1  Cc1c(Cl)cccc1NC(=O)CCC(=O)N/N=C/c1ccc[nH]1             f
2                 CCc1nc(Cl)c(C#N)c2c1CCCC2             t
3                  CC(C)Nc1ncnc2ccc(Br)cc12             t
4  C[n+]1c2n(c3ccccc31)N=C(c1ccc(Br)cc1)CS2             f
5  O=C(NN=Cc1ccccc1O)c1cccc([N+](=O)[O-])c1             t
6                Oc1ccc(C=NNc2ccccn2)c(O)c1             t
7  COCC(C)n1c(C)cc(C(=O)COC(=O)c2cccn2C)c1C (configuration not stated)             f

State the result this test recorded for "Cc1nn(Cc2ccc(Cl)cc2)c(C)c1NC(=O)c1cc(-c2ccc3c(c2)OCO3)on1" .
f

State the result this test recorded for OCC1OC(n2ccc3c2ncn2ncnc32)C(O)C1O (configuration not stated) .
t

State the result this test recorded for N#CC(c1cccc(Cl)c1)c1ccc2c(C(F)(F)F)cc(C(F)(F)F)nc2n1 (configuration not stated) .
t

State the result this test recorded for "C/C(=N\NC(=O)COc1ccccc1-c1ccccc1)c1ccc(O)cc1O" .
f

###

# method.summary: StAR promoter reporter inhibitors, counter-screen for LRH-1 inverse agonist project, cell-based, luminescence, high throughput (AID 651611)
# setup.conditions: StAR promoter luciferase reporter counterscreen, at 3.6 µM, stronger effect = higher value
Classification field: YES = inhibition at or over 20%; NO = inhibition under 20%.

# example entries with known answers
In [3]: df
Out[3]:
                                   compound  answer_label
0   O=C(Nc1ccc(Br)cn1)c1ccc([N+](=O)[O-])o1            NO
1  CC1CCc2nc(N)c(C#N)c(-c3cccnc3)c2C1 (stereo unspecified)           YES
2  O=C(c1ccccc1)N1CCN(c2ccc([N+](=O)[O-])c(N3CCOCC3)c2)CC1            NO
3   CCCc1cc(=O)oc2cc(C)cc(OCC(=O)NC3CC3)c12            NO
4  CCCCC(=O)NC(c1ccccc1)c1ccc2cccnc2c1O (stereo unspecified)           YES

Does the reported inhibition for COc1ccc(NC(=O)CN2C(=O)NC3(CCCc4ccccc43)C2=O)c(OC)c1 (stereo unspecified) fall at or above the 20% mark?
NO

Does the reported inhibition for "Cc1cccc(C(=O)Nc2sc3c(c2C(=O)O)CCCC3)c1" fall at or above the 20% mark?
YES

Does the reported inhibition for "COc1cc(NC(=O)c2ccc([N+](=O)[O-])o2)ccc1NC(=O)c1cccs1" fall at or above the 20% mark?
YES

Does the reported inhibition for "Cc1c(Cl)cccc1NC(=O)CSc1nc2ncc(Cl)cc2[nH]1" fall at or above the 20% mark?
NO

Does the reported inhibition for "CCCCC[n+]1cccc2c3ccccc3ccc21" fall at or above the 20% mark?
YES

Does the reported inhibition for "COc1ccccc1N1CCN(Cc2cc(Br)c(O)c3ncccc23)CC1" fall at or above the 20% mark?
YES

###

# assay.target: Protein phosphatase methylesterase 1 (Homo sapiens) (UniProt Q9Y570)
# Sequence (Q9Y570 whole entry, looked up): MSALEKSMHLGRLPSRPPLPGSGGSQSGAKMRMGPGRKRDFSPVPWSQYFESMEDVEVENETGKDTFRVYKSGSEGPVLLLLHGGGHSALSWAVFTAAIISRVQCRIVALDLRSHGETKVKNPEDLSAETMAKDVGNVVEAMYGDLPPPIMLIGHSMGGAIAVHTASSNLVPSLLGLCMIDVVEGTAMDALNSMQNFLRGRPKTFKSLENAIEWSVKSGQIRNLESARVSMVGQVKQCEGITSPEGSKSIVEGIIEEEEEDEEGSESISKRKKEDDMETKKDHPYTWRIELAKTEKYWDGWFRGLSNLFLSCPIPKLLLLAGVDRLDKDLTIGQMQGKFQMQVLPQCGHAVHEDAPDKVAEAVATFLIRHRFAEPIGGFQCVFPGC
# method.summary: PME-1 inhibitor activity retest, confirmation, biochemical, fluorescence polarization, FP-Rh probe, triplicate (AID 2171);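 note: 0% = enzyme with DMSO and 100% = wells lacking PME-1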
# setup.conditions: recombinant PME-1, FP-Rh probe fluorescence polarization; at 5.9 µM; stronger effect = higher value
Group membership follows inhibition per the scheme low-valued (below 20%), mid-valued (20% to below 30%), high-valued (30% or more)

>>> df
                                   compound  answer_label
0  O=C1c2cccc3c(N4CCCCC4)ccc(c23)C(=O)N1c1cccc(O)c1    low-valued
1  Cn1c(=O)cc2c3c(c(N4CCCCC4)ccc31)C(=O)c1ccccc1-2    mid-valued
2  O=[N+]([O-])c1cccc(-c2nc(-c3cccs3)c(-c3cccs3)[nH]2)c1    low-valued

Which band does O=C1CN(C(=O)c2ccccc2F)C(c2ccccc2)c2cc(F)ccc2N1 (stereo not given) fall in?
low-valued

Which band does "O=C(CSc1nnc(SCc2ccccc2Cl)s1)N/N=C/c1c[nH]c2ccccc12" fall in?
low-valued
